# key: entry, value: IC50
target: TRPC5 (Homo sapiens, UniProt Q9UL62); construct: expressed in transfected cells; host or cells: HEK 293; assay: TRPC5 Fluorescence Assay - FLIPR format (HEK-TREx hTRPC5, Riluzole stimulation); type: cell-based; settings: Table 9, read-out: hTRPCS-FLIPR IC50
Sequence (Q9UL62 whole entry): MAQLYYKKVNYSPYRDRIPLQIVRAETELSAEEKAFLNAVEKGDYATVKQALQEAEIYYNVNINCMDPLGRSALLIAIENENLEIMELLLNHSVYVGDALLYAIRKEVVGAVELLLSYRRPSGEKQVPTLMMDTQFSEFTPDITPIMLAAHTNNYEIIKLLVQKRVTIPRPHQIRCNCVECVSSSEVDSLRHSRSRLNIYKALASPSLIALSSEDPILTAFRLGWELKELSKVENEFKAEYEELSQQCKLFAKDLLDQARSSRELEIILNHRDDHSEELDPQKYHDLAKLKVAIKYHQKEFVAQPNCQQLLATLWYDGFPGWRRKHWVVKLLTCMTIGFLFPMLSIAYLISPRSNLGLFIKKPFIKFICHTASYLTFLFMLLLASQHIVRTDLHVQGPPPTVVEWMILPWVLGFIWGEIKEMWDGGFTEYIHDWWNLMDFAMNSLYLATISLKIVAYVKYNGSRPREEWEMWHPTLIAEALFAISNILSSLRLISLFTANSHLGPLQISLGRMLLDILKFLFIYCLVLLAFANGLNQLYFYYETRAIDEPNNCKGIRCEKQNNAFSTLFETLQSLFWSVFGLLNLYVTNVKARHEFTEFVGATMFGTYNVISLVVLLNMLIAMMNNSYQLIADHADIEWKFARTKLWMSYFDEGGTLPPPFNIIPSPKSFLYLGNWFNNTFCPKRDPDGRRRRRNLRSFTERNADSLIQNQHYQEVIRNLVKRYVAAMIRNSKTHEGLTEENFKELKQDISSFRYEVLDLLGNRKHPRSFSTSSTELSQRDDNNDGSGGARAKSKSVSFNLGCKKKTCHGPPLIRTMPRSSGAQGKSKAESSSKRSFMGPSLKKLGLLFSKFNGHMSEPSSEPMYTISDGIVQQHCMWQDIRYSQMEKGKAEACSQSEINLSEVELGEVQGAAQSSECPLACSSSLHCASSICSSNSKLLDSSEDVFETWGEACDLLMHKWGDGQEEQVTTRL

Illustrative cases are given below, each with its answer.
# compound, target.desc, IC50
data = [
    ("CCc1ncccc1[C@@H](C(C)C)N1CCN(c2cn[nH]c(=O)c2Cl)CC1", "TRPC5 (Homo sapiens, UniProt Q9UL62)", "0.01 to 1000 nM"),
    ("Cc1ccccc1C(O)C1CCN(c2cn[nH]c(=O)c2Cl)CC1 (stereo not shown)", "TRPC5 (Homo sapiens, UniProt Q9UL62)", "1000 to 5000 nM"),
    ("O=C(CN1CCN(c2cn[nH]c(=O)c2Cl)CC1)c1ccccc1C(F)(F)F", "TRPC5 (Homo sapiens, UniProt Q9UL62)", "1000 to 5000 nM"),
]

Exercise: Quick check: IC50 of CCn1nnc(C)c1CN1CCN(c2cn[nH]c(=O)c2Cl)CC1 ?
Solution: 1000 to 5000 nM

Exercise: Quick check: IC50 of C[C@@H](c1ccccc1C(F)(F)F)N1CCN(c2cn[nH]c(=O)c2Cl)CC1=O [drawing 1044] ?
Solution: 0.01 to 1000 nM

Exercise: Quick check: IC50 of CCc1ncccc1[C@@H](CC)N1CCN(c2cn[nH]c(=O)c2C#N)CC1 ?
Solution: 0.01 to 1000 nM

Exercise: Quick check: IC50 of C[C@@H](O)c1ncccc1CN1CCN(c2cn[nH]c(=O)c2Cl)CC1 ?
Solution: 1000 to 5000 nM

Exercise: Quick check: IC50 of CCc1ncccc1[C@@H](CC)N1CCN(c2cn[nH]c(=O)c2Cl)CC1 ?
Solution: 1000 to 5000 nM

Exercise: Quick check: IC50 of C[C@H](c1ccc(F)cc1C(F)(F)F)N1C[C@@H](C)N(c2cn[nH]c(=O)c2Cl)CC1=O [drawing 1048] ?
Solution: 0.01 to 1000 nM

Exercise: Quick check: IC50 of CCc1ncccc1CC1(O)CCN(c2cn[nH]c(=O)c2Cl)CC1 ?
Solution: 1000 to 5000 nM

Exercise: Quick check: IC50 of CCc1ncccc1NC1CCN(c2cn[nH]c(=O)c2Cl)CC1 ?
Solution: 5000 to 10000 nM
